Data provenance is patent US20030078221.

Assay Target: Complement C5 (Homo sapiens, UniProt P01031;P01031 P01031:19-673,P01031:678-1676)
Assay Info: filter; reduced binding
Experimental Setup: tags: Quidel

Binder: GAUGCGGUCUCAUGCGUCGAGUGUGAGUUUACCUUC (ssRNA, 2'-F pyrimidines) [C6 36mer truncate]
Kd / nM: 50
